TARGET_OF_ASSAY: Cytochrome P450 1A2 (Homo sapiens)
PROTOCOL_DETAILS: Cytochrome panel assay with activity outcomes
ASSAY_SETUP: recombinant CYP, pro-luciferin dealkylation, luminescence, p450-cyp1a2; series mostly up to 57.1 µM
Out of some 16,000 compounds screened, about 5,700 (36%) were called active. Roughly 24% stayed inconclusive and do not appear here. Calls follow the shape of the dose curve; as a rule, active = well fitted curve in the direction sought with a large enough effect; inconclusive = small, poorly fitted or top-dose-only effect, or effect the other way; inactive = no such curve, though single readings can be large or run the other way. Some of the results follow.
Labels: active, inactive

- CCCCCC[C@H]1C(=O)O[C@H](C)[C@H](NC(=O)c2cccc(NC=O)c2O)C(=O)O[C@@H](C)[C@H]1OC(=O)CC(C)C: inactive
- N=C1c2ccccc2CN1NC(=O)c1ccc(F)cc1: inactive
- CNC[C@H](O)c1ccc(OC(=O)C(C)(C)C)c(OC(=O)C(C)(C)C)c1: inactive
- COc1ccc(C2SCC(=O)Nc3c2c(C)nn3C2CCOC(C)(C)C2)cc1 (stereo not given): inactive
- O=c1[nH]oc2c1CCNC2: inactive
- COc1ccccc1CN1CCCC2(CCN(C(=O)Oc3ccccc3)CC2)C1: inactive
- CC(=O)[C@@H]1CC[C@@H]2[C@@H]3CC=C4C[C@H](OS(=O)(=O)O)CC[C@@]4(C)[C@H]3CC[C@]21C: inactive
- COc1cc(-c2ccc(=O)[nH]n2)ccc1OC(F)F: active
- c1cc2cc(c1)C[n+]1ccc(c3ccccc31)NCc1ccc(cc1)CNc1cc[n+](c3ccccc13)C2: inactive
- CC[C@H](C(=O)[C@H](C)[C@H](O)[C@H](C)CCc1ccc(C)c(O)c1C(=O)O)[C@H]1O[C@](CC)([C@@H]2CC[C@@](O)(CC)[C@H](C)O2)C[C@H]1C: inactive
- CCOP(=O)(CN(CC)CCNP(=O)(OCC)OCC)OCC: inactive
- CC(C)C[C@H]1C(=O)N2CCC[C@@H]2[C@]2(O)O[C@](NC(=O)[C@H]3C=C4c5cccc6[nH]c(Br)c(c56)C[C@H]4N(C)C3)(C(C)C)C(=O)N12: inactive
- Cc1cc(C)c(-n2c(O)c(C=NCCN3CCOCC3)c(=O)[nH]c2=O)c(C)c1: inactive
- CCN1C[C@@]2(COC)[C@H]3[C@@H](OC)[C@H]4C1[C@@]3([C@H](OC)C[C@@H]2O)[C@H]1C[C@@]2(O)[C@@H](OC(=O)c3ccccc3)[C@@H]1[C@@]4(OC(C)=O)[C@H](O)[C@@H]2OC: inactive
- O=C(O)CNC(=O)[C@@H](CS)Cc1ccccc1: inactive
- COc1ccc(NC(=O)N2CCCC3(CCN(C(=O)Oc4ccccc4)CC3)C2)cc1: active
- Cc1cc(OCC(=O)OC(C)C)c2c3c(c(=O)oc2c1)CCCC3: active
- CC[C@H](CO)NC(=O)[C@@H]1C=C2c3cccc4c3c(cn4C)C[C@@H]2N(C)C1: inactive
- Nc1nc(OCc2ccccc2)c2[nH]cnc2n1: active
- CC[C@@H](CO)NC(=O)[C@H]1C=C2c3cccc4c3c(cn4C)C[C@H]2N(C)C1: active
- CN(C)Cc1c[nH]c2ccccc12: inactive
- COc1cc2ccccc2c2cc([N+](=O)[O-])oc12: active
- CCN1C[C@]2(C)CC[C@H](OC)[C@@]34[C@@H]2[C@H](OC(C)=O)[C@]2(OCO[C@@]25C[C@@H](OC)[C@@H]2C[C@@]3(O)[C@H]5[C@@H]2OC)[C@H]14: inactive
- CCSc1nnc(C(N)Cc2ccccc2)o1 (stereo not given): inactive
- C[N+](C)(C)CCCCCC[N+](C)(C)C: inactive
- CCn1cnc2c(Nc3cccc(Cl)c3)nc(N[C@@H]3CCCC[C@H]3N)nc21: active
- O=C(Nc1cccc(F)c1)N1CC2(CCNCC2)C1: inactive
- Cc1cc(OCc2ccc([N+](=O)[O-])cc2)c2c3c(c(=O)oc2c1)CCCC3: active
- c1ccc2sc(C3(N4CCCCC4)CCCCC3)cc2c1: inactive
- COC(=O)C(O)(c1c(C)[nH]c2ccccc12)C(F)(F)F (stereo not given): active
- CC(C)c1c(CN(C)[C@@H](C)Cc2ccccc2)n(C)n(-c2ccccc2)c1=O: inactive
- CCOC(=O)C1=C(C)OC(N)=C(C#N)C12C(=O)N(C)c1ccccc12 (stereo not given): inactive
- NC(=O)c1cc(N2CC2)c([N+](=O)[O-])cc1[N+](=O)[O-]: inactive
- C[N+](C)(C)CCCCCCCCCC[N+](C)(C)C: inactive
- N#Cc1ccc(CN2CCC3(CC2)CCN(C(=O)Oc2ccccc2)CC3)cc1: inactive
- Cc1o[nH]c(=O)c1C[C@@H](N)C(=O)O: inactive
- C/C=C1\C[N@@+]2(C)CC[C@@]34C(=C(C=O)[C@H]1C[C@H]32)Nc1ccccc14: inactive
- C#CCN(C)[C@H](C)Cc1ccccc1: active
- CC(C)CN1CC2(CCN(C(=O)Oc3ccccc3)CC2)C1: inactive
- O=C1c2ccccc2-c2cc([N+](=O)[O-])c([N+](=O)[O-])cc21: active
